- RUN DESCRIPTION: Pharmacokinetics in the rabbit after IV and IN administration
- Type: in vivo, New Zealand White rabbits
- RUN CONDITIONS: male, New Zealand White, plasma, inhaled or intranasal, 0.3 mg/kg, IN low dose 0.3 mg/kg, read-out: Bioavailability (F %)
MEASUREMENT KIND: bioavailability (%)
Your answer is read as %, so omit the unit and give the number.

For the molecule Cc1cc(C[C@@H](NC(=O)N2CCC(c3cc4ccccc4[nH]c3=O)CC2)C(=O)N2CCN(C3CCN(C)CC3)CC2)cc2cn[nH]c12 , what bioavailability is on record?
12.5

----------
- RUN DESCRIPTION: One-week comparative intranasal irritation study in rats: toxicokinetics
- RUN CONDITIONS: male, rat, in vivo, inhaled or intranasal, 5 mg, intranasal 5 mg (0.357 mg/cm^2) once daily, Day 6, read-out: Mean T1/2 (converted)
- Description: This study was conducted to compare potential nasal irritation of Compound I to Compound III when given intranasally to male rats for 1 week. […] Parameters evaluated included clinical observations, body weight, food consumption, toxicokinetics, and histological evaluation of nasal tissues.
MEASUREMENT KIND: half-life (h)
Your answer is read as h, so omit the unit and give the number.

For the compound Cc1cc(C[C@@H](NC(=O)N2CCC(c3cc4ccccc4[nH]c3=O)CC2)C(=O)N2CCN(C3CCN(C)CC3)CC2)cc2cn[nH]c12 , what half-life is on record?
5.6

----------
- RUN DESCRIPTION: One-week comparative intranasal irritation study in rats: toxicokinetics
- RUN CONDITIONS: male, rat, in vivo, inhaled or intranasal, 5 mg, intranasal 5 mg (0.357 mg/cm^2) once daily, Day 6
MEASUREMENT KIND: Cmax (nM)
Your answer is read as nM, so omit the unit and give the number.

For the compound Cc1cc(C[C@@H](NC(=O)N2CCC(c3cc4ccccc4[nH]c3=O)CC2)C(=O)N2CCN(C3CCN(C)CC3)CC2)cc2cn[nH]c12 , what Cmax is on record?
660

----------
- RUN DESCRIPTION: Aqueous solubility, pH dependence
- Type: physicochemical
- RUN CONDITIONS: aqueous media, aqueous buffer, thermodynamic from solid; pH < 8.5, 25 C; read-out: Solubility
MEASUREMENT KIND: solubility

For the molecule Cc1cc(C[C@@H](NC(=O)N2CCC(c3cc4ccccc4[nH]c3=O)CC2)C(=O)N2CCN(C3CCN(C)CC3)CC2)cc2cn[nH]c12 , what solubility is on record?
> 300 mg/mL

----------
- RUN DESCRIPTION: One-week comparative intranasal irritation study in rats: toxicokinetics
- RUN CONDITIONS: male, rat, in vivo, inhaled or intranasal, 35 mg, intranasal 35 mg (2.50 mg/cm^2) once daily, Day 0, read-out: Composite AUC0-24 h
MEASUREMENT KIND: AUC(0-t)

For the compound Cc1cc(C[C@@H](NC(=O)N2CCC(c3cc4ccccc4[nH]c3=O)CC2)C(=O)N2CCN(C3CCN(C)CC3)CC2)cc2cn[nH]c12 [Compound I] , what AUC(0-t) is on record?
7.9 µM·h

----------
- RUN DESCRIPTION: Pharmacokinetics in the rabbit after IV and IN administration
- Format: in vivo, New Zealand White rabbits
- RUN CONDITIONS: male, New Zealand White, plasma, inhaled or intranasal, 1 mg/kg, IN mid-dose 1.0 mg/kg (30 mg/ml), n = 3, Mean ± SD
MEASUREMENT KIND: Cmax (nM)
Your answer is read as nM, so omit the unit and give the number.

For the molecule Cc1cc(C[C@@H](NC(=O)N2CCC(c3cc4ccccc4[nH]c3=O)CC2)C(=O)N2CCN(C3CCN(C)CC3)CC2)cc2cn[nH]c12 , what Cmax is on record?
550
